# Tested on: Fer (mouse)
# procedure-text: phosphorylation enrichment, bacterial display (enrichment ratio); higher = better substrate or ligand; peptides without Tyr show the background;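 further: 11-residue human phosphosite peptides and single-mutation variants displayed on the E. coli surface, counted by deep sequencing, each peptide's frequency after selection divided by its frequency in the unselected input library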;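 further: frequency after pTyr selection over input frequency; kinase dosed for 20-30% of maximal phosphorylation in three min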
In this section, each of the sequences is paired with its reported phosphorylation enrichment.
recorded-endpoint: phosphorylation enrichment

>  <record-sequence>
CGTPDYIAPEI [PRKCG_Y521]

>  <assay-system>
Fer (mouse)

>  <measured-result>
0.484

$$$$
>  <record-sequence>
GMRHGHGVRQS [JPH2_Y141_Y141H]

>  <assay-system>
Fer (mouse)

>  <measured-result>
0.529

$$$$
>  <record-sequence>
ANLAKYGNPNE [BCHE_Y505_F502L]

>  <assay-system>
Fer (mouse)

>  <measured-result>
0.391

$$$$
>  <record-sequence>
KIITDYFVDMK [MPP4_Y566_V562I_YF]

>  <assay-system>
Fer (mouse)

>  <measured-result>
0.456

$$$$
>  <record-sequence>
GLAKGYIDPET [CSNK1G2_Y195_E194G]

>  <assay-system>
Fer (mouse)

>  <measured-result>
0.482

$$$$
>  <record-sequence>
AEFGLYRAMVR [VSX2_Y222_G223R_YF]

>  <assay-system>
Fer (mouse)

>  <measured-result>
0.431

$$$$
>  <record-sequence>
IHETTYNSIKK [ACTA1_Y281_M285K]

>  <assay-system>
Fer (mouse)

>  <measured-result>
0.35

$$$$
>  <record-sequence>
GCKNHYDKDKP [THAP1_Y14_R13H]

>  <assay-system>
Fer (mouse)

>  <measured-result>
0.521

$$$$
>  <record-sequence>
ALAHKYPGGGG [HBB_Y146_H147P]

>  <assay-system>
Fer (mouse)

>  <measured-result>
0.432

$$$$
>  <record-sequence>
PSTFRYERGSR [INPPL1_Y663_P659S_YF]

>  <assay-system>
Fer (mouse)

>  <measured-result>
0.352

$$$$
>  <record-sequence>
ETKGDYEKILV [ANXA1_Y335]

>  <assay-system>
Fer (mouse)

>  <measured-result>
1.04

$$$$
>  <record-sequence>
RNFVHYVQGLK [VWF_Y1400_R1399H]

>  <assay-system>
Fer (mouse)

>  <measured-result>
0.349

$$$$
>  <record-sequence>
HNLDYYKMTTN [FGFR3_Y648_K650M]

>  <assay-system>
Fer (mouse)

>  <measured-result>
0.64

$$$$

* * *

# Test system: AncSZ
# procedure-text: phosphorylation enrichment, bacterial display (enrichment ratio); higher = better substrate or ligand; peptides without Tyr show the background
phosphorylation enrichment values by entry

>  <record-sequence>
PIFEGYALPHA [ACTA1_Y171_YF]

>  <phosphorylation enrichment>
0.82

$$$$
>  <record-sequence>
QMVGMYASFYM [AVPR2_Y124_S127F]

>  <phosphorylation enrichment>
1.35

$$$$
>  <record-sequence>
EGDGVYTLNDE [HP_Y125_N129D]

>  <phosphorylation enrichment>
1.18

$$$$
>  <record-sequence>
ECKLRYSRKEG [PTPN11_Y263_L262R]

>  <phosphorylation enrichment>
0.527

$$$$
>  <record-sequence>
EGLKVYINGTL [ADGRD1_Y183_V184I]

>  <phosphorylation enrichment>
1.18

$$$$
>  <record-sequence>
SSYDIYHLSRE [KIR3DL2_Y253]

>  <phosphorylation enrichment>
1.27

$$$$
>  <record-sequence>
GGFTCYCDGKK [PROS1_Y266_YF]

>  <phosphorylation enrichment>
1.12

$$$$
>  <record-sequence>
EFDRLYEEFTR [PIK3R1_Y467_YF]

>  <phosphorylation enrichment>
1.59

$$$$
>  <record-sequence>
NPQKSYLIRLF [WAS_Y83_F84L_YF]

>  <phosphorylation enrichment>
0.768

$$$$
>  <record-sequence>
VDTFWYKFLKR [EPM2A_Y86]

>  <phosphorylation enrichment>
1.21

$$$$
>  <record-sequence>
TLNHQYDYTFD [CSNK1A1_Y292]

>  <phosphorylation enrichment>
1.05

$$$$
>  <record-sequence>
KIITDYFVDMK [MPP4_Y566_V562I_YF]

>  <phosphorylation enrichment>
1.05

$$$$
>  <record-sequence>
EREYKYDAHNY [OAT_Y50_G51D]

>  <phosphorylation enrichment>
0.757

$$$$
>  <record-sequence>
NFADPYRQLPF [CTNND2_Y503_Q507P_YF]

>  <phosphorylation enrichment>
0.732

$$$$
>  <record-sequence>
ADQLDYIKALN [HPRT1_Y81_L78Q]

>  <phosphorylation enrichment>
1.06

$$$$
>  <record-sequence>
VNLVLHLSIAK [FBXO15_Y496_Y496H]

>  <phosphorylation enrichment>
1.15

$$$$
>  <record-sequence>
CTTFHYNYMCN [TP53_Y234_I232F]

>  <phosphorylation enrichment>
1.03

$$$$
>  <record-sequence>
RRIHNYRGHLW [VHL_Y112_S111N]

>  <phosphorylation enrichment>
0.577

$$$$
>  <record-sequence>
ISMAGYSIPEL [EDAR_Y406_T403M]

>  <phosphorylation enrichment>
0.647

$$$$
>  <record-sequence>
RSFLSYFTSHV [NEFL_Y442_P440L_YF]

>  <phosphorylation enrichment>
1.54

$$$$
>  <record-sequence>
AIIGIYILRDD [CDH23_Y2949]

>  <phosphorylation enrichment>
1.24

$$$$
>  <record-sequence>
FPLELYERVRI [PRKCG_Y312_M317I_YF]

>  <phosphorylation enrichment>
1.34

$$$$
>  <record-sequence>
TLRETYGEMAD [ALB_Y108]

>  <phosphorylation enrichment>
0.999

$$$$
>  <record-sequence>
LISVSYDDWDY [GRIN2A_Y281]

>  <phosphorylation enrichment>
2.2

$$$$
>  <record-sequence>
DESEDYRDTVV [CNNM3_Y456]

>  <phosphorylation enrichment>
1.46

$$$$
>  <record-sequence>
VNFGAYINDFK [GLB1_Y488_YF]

>  <phosphorylation enrichment>
0.909

$$$$
>  <record-sequence>
FFWDGYMPRQF [GSS_Y270_R267W_YF]

>  <phosphorylation enrichment>
1.12

$$$$
>  <record-sequence>
PNATLYKMTSI [SERPINA7_Y40_S43T]

>  <phosphorylation enrichment>
0.883

$$$$
>  <record-sequence>
VATSWYRSPEL [CDKL5_Y177_R175S]

>  <phosphorylation enrichment>
0.768

$$$$
